target: Plasminogen (Homo sapiens, UniProt P00747); assay: Inhibitory activity was measured against plasmin.
Sequence (P00747 97-580 limits assumed): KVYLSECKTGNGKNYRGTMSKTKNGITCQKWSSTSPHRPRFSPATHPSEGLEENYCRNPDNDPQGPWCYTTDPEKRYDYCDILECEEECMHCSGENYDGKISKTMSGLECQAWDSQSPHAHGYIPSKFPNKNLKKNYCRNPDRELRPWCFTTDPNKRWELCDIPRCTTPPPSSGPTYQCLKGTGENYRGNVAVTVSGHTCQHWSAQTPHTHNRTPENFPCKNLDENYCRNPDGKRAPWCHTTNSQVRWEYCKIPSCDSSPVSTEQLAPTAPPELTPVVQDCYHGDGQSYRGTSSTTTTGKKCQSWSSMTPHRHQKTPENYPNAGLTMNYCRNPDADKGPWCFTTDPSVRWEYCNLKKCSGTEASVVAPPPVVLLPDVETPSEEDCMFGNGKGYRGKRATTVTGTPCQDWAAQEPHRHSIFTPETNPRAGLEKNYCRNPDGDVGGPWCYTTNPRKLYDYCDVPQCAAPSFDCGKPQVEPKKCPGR
Sequence (P00747 581-810 limits assumed): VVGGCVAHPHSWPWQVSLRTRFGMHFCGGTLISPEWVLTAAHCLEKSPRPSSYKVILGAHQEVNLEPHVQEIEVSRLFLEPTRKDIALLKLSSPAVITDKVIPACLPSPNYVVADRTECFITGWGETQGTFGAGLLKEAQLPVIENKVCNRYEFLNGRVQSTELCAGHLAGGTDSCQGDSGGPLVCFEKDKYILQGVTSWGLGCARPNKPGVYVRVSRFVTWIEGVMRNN

# molecular.string, test.target, modifier.sign, IC50 [µM]
data = [
    ("O=C(CCNC(=O)OCc1ccccc1)OCN1C(=O)c2ccccc2S1(=O)=O", "Plasminogen (Homo sapiens, UniProt P00747)", ">", 33),
    ("O=C(CCCCNC(=O)OCc1ccccc1)OCN1C(=O)c2ccccc2S1(=O)=O", "Plasminogen (Homo sapiens, UniProt P00747)", "=", 33),
]

---

Biological target: Neutrophil elastase (Homo sapiens)
Sequence (P08246 whole entry): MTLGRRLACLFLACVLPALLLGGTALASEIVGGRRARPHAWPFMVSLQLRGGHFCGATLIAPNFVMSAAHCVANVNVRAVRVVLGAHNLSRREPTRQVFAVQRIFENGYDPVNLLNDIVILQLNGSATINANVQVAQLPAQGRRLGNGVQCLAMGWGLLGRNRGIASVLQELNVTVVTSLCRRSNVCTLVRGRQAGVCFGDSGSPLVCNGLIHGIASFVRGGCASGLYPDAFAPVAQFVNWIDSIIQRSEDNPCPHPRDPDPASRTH
Assay: Inhibitory activity was measured against human leukocyte elastase.
quantity.kind: IC50 (nM)

# molecular.string, measurement.units, experimental.value
rows = [
    ("O=C(CCCCNC(=O)OCc1ccccc1)OCN1C(=O)c2ccccc2S1(=O)=O", "nM", 1440),
    ("O=C(CCNC(=O)OCc1ccccc1)OCN1C(=O)c2ccccc2S1(=O)=O", "nM", 2260),
    ("O=C(Nc1ccc(C(=O)OCN2C(=O)c3ccccc3S2(=O)=O)cc1)OCc1ccccc1", "nM", 2660),
]

---

Record: IC50 reported on Urokinase-type plasminogen activator (Homo sapiens, UniProt P00749).

# molecular.string, IC50
data = [
    ("O=C(CCNC(=O)OCc1ccccc1)OCN1C(=O)c2ccccc2S1(=O)=O", "> 33 µM"),
    ("O=C(CCCCNC(=O)OCc1ccccc1)OCN1C(=O)c2ccccc2S1(=O)=O", "> 33 µM"),
]

---

molecular target: Tryptase (Homo sapiens, UniProt Q9BZJ3+Q15661+Q9NRR2); assay: Inhibitory activity was measured against human mast cell tryptase.; format: protein assay
quantity.kind: IC50 (µM)

# molecular.string, quantity.kind, measurement.units, modifier.sign, experimental.value
measured = [
    ("O=C(CCCNC(=O)OCc1ccccc1)OCN1C(=O)c2ccccc2S1(=O)=O", "IC50", "µM", "=", 0.349),
    ("CC(C)(C)OC(=O)N[C@H](CCCCNC(=O)OCc1ccccc1)C(=O)OCN1C(=O)c2ccccc2S1(=O)=O", "IC50", "µM", "=", 12.2),
    ("O=C(OCN1C(=O)c2ccccc2S1(=O)=O)c1ccc(OCCOc2ccccc2)cc1", "IC50", "µM", ">", 33),
    ("O=C(CCCCNC(=O)OCc1ccccc1)OCN1C(=O)c2ccccc2S1(=O)=O", "IC50", "µM", "=", 0.11),
    ("O=C(NCc1ccc(C(=O)OCN2C(=O)c3ccccc3S2(=O)=O)cc1)Nc1ccccc1", "IC50", "µM", "=", 0.157),
    ("O=C(NCc1ccc(C(=O)OCN2C(=O)c3ccccc3S2(=O)=O)cc1)Oc1ccccc1", "IC50", "µM", "=", 0.63),
    ("O=C(NCc1ccc(C(=O)OCN2C(=O)c3ccccc3S2(=O)=O)cc1)OCc1ccccc1", "IC50", "µM", "=", 0.352),
    ("O=C(Nc1cccc(C(=O)OCN2C(=O)c3ccccc3S2(=O)=O)c1)OCc1ccccc1", "IC50", "µM", ">", 33),
    ("O=C(CCc1ccccc1)Nc1ccc(C(=O)OCN2C(=O)c3ccccc3S2(=O)=O)cc1", "IC50", "µM", "=", 0.17),
    ("O=C(CCNC(=O)OCc1ccccc1)NCCC(=O)OCN1C(=O)c2ccccc2S1(=O)=O", "IC50", "µM", ">", 33),
    ("O=C(NCCc1ccccc1)c1ccc(C(=O)OCN2C(=O)c3ccccc3S2(=O)=O)cc1", "IC50", "µM", "=", 0.679),
]
